Molecular target: T1, human PD-1 expressed on cells (human, UniProt Q15116 25-288)
T1 construct: whole, on cells; also called hPD-1; 293 cell line stably expressing human PD-1
T1 sequence (Q15116 25-288): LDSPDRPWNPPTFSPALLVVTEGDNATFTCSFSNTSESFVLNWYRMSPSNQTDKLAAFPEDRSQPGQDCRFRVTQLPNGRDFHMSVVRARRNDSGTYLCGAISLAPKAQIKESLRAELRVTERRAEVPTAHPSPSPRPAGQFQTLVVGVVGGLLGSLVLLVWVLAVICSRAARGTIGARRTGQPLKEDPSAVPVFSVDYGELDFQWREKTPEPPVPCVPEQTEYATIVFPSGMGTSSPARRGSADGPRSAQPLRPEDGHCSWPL
Assay: flow cytometry on cells overexpressing hPD-1
parameterMeasured: percent of cells in the positive quadrant (%)
# number only, unit % dropped from output

>>> readoutvalue("T14-01 (antibody, V domains shown) VH: EVQLVESGGGLVQPGGSLRLSCAASGFVFSNYDMSWVRQAPGKGLEWVAYITIGGGTTYYPDTVKGRFTISRDNAKNSLYLQMNSLRAEDTAVYYCARWVYDPLYAMDYWGQGTTVTVSS VL: DIVLTQTPLSLSVTPGQPASISCRASESVTDYGISFMNWFLQKPGQPPQLLIYAASNQGSGVPDRFSGSGSGTDFTLKISRVEAEDVGVYYCQQSKEVPWTFGQGTKVEIK")
96.8
>>> readoutvalue("7C5-T15-01 (antibody, human IgG4, V domains shown) VH: EVQLVESGGGLVKPGGSLRLSCAASGFTFSSFGMSWVRQAPGKGLELVATIYSNGDYTYYPDSVKGRFTVSRDNAKNSLYLQMNSLRAEDTAVYYCARYYGNYGGYFDYWGQGTLVTVSS VL: AIQMTQSPSSLSASVGDRVTITCKASQSVWDDLTWYQQKPGKAPKLLIYYASNRYTGVPSRFSGSGSGTDFTLTISSLQPEDFATYYCQQDYSSPPTFGGGTKVEIK")
97.3

Input line: // lookup percent of cells in the positive quadrant for T14-03 (antibody, V domains shown) VH: EVQLVESGGGLVQPGGSLRLSCAASGFVFSNYDMSWVRQAPGKGLEWVAYITIGGGTTYYPDTVKGRFTISRDNAKNSLYLQMNSLRAEDTAVYYCARWVYDPLYAMDYWGQGTTVTVSS VL: DIVLTQTPLSLSVTPGQPASISCRASESVTDYGISFMNWFLQKPGQPPQLLIYAASNQGSGVPDRFSGSGSGTDFTLKISRVEAEDVGVYYCQQSEEVPWTFGQGTKVEIK
Output line: 90.9

Input line: Follow-up item: humanized antibody 8D4 (antibody, V domains shown, Humanized antibody) VH: QVQLVQSGAEVKKPGASVKVSCKASGYTFTTYWIHWVRQAPGQGLEWIGYINPTTGYTEYNQKFKDRATLTADKSTSTAYMELSSLRSEDTAVYYCARGVRYYFDYWGKGTTVTVSS VL: DIVMTQSPDSLAVSLGERATINCKSSQSLLDSRTRKNYLAWYQQKPGQPPKLLIYWASTRESGVPDRFSGSGSGTDFTLTISSLQAEDVAVYYCKQSYNLITFGQGTKLEIK
Output line: 96.2

Input line: Consider next the binder T15-05 (antibody, V domains shown) VH: EVQLVESGGGLVKPGGSLRLSCAASGFTFSSFGMSWVRQAPGKGLELVATIYHSRDYTYYPDSVKGRFTVSRDNAKNSLYLQMNSLRAEDTAVYYCARYYGNYGGYFDYWGQGTLVTVSS VL: AIQMTQSPSSLSASVGDRVTITCKASQSVSNDVAWYQQKPGKAPKLLIYYASNRYTGVPSRFSGSGSGTDFTLTISSLQPEDFATYYCQQDYSSPPTFGGGTKVEIK in the same way.
Output line: 97.5

// provenance: patent US20250270320A1
